- protocol-description: solubility of dasatinib salts at 37° C., HPLC (Example 47A)
- Format: physicochemical
- condition-set: aqueous buffer, thermodynamic from solid, 0.05M acetate buffer, pH = 4.5
measurement-name: solubility (µg/mL)
One number for each entry, in µg/mL.

solubility reading for Cc1nc(Nc2ncc(C(=O)Nc3c(C)cccc3Cl)s2)cc(N2CCN(CCO)CC2)n1 : 86.9

---

- protocol-description: solubility of nilotinib salts, HPLC (Example 38A)
- Assay type: physicochemical
- condition-set: 37 °C, pH 1, simulated gastric fluid, thermodynamic from solid
Counter-ions that a name gives are not always drawn.
measurement-name: solubility (µg/mL)
One number for each entry, in µg/mL.

solubility reading for Cc1cn(-c2cc(NC(=O)c3ccc(C)c(Nc4nccc(-c5cccnc5)n4)c3)cc(C(F)(F)F)c2)cn1 [Nilotinib HCl] : 3800

---

- protocol-description: solubility of nintedanib salts at room temperature, HPLC (Example 25A)
- Type: physicochemical
- condition-set: simulated gastric fluid, thermodynamic from solid, 0.1 N HCl, pH = 1.0
measurement-name: solubility

solubility reading for COC(=O)c1ccc2c(c1)NC(=O)/C2=C(\Nc1ccc(N(C)C(=O)CN2CCN(C)CC2)cc1)c1ccccc1 [nintedanib esylate] : 107 mg/mL

---

- protocol-description: solubility of nintedanib salts at room temperature, HPLC (Example 25A)
- Format: physicochemical
- condition-set: aqueous buffer, thermodynamic from solid, 0.05 M acetate buffer, pH = 4.5
measurement-name: solubility
Please provide the amount together with its unit, number first.

solubility reading for COC(=O)c1ccc2c(c1)NC(=O)/C2=C(\Nc1ccc(N(C)C(=O)CN2CCN(C)CC2)cc1)c1ccccc1 [nintedanib esylate] : 6260 µg/mL
